System: HEK-293T
experiment-notes: Multiplex assay against HEK293T
Type: toxicity, cell-based
condition-parameters: human, 24 h, 10 µM, compound concentration 10 uM, replicate 2
readout-type: Population Normal (%)
Give the value in % but do not write % after it.

Query string: Fill in: Population Normal (%) of `CN(C)CC#Cc1ccc(OCCCc2sc(N3CCc4cccc(C(=O)Nc5nc6ccccc6s5)c4C3)nc2C(=O)O)c(F)c1` is ___
Result string: 96

Query string: Fill in: Population Normal (%) of C=CC(=O)Nc1cc2c(Nc3ccc(F)c(Cl)c3)ncnc2cc1OCCCN1CCOCC1.Cl.Cl [CANERTINIB DIHYDROCHLORIDE] is ___
Result string: 97

Query string: Fill in: Population Normal (%) of `Cc1c(-c2ccc(O)cc2)n(Cc2ccc(OCCN3CCCCCC3)cc2)c2ccc(O)cc12` is ___
Result string: 91

Query string: Fill in: Population Normal (%) of CC(C)NCC(O)COc1ccc(CCOCC2CC2)cc1.Cl (centres undefined) [BETAXOLOL HYDROCHLORIDE] is ___
Result string: 94

Query string: Fill in: Population Normal (%) of `Cc1[nH]c(/C=C2\C(=O)Nc3ccc(S(=O)(=O)N(C)c4cccc(Cl)c4)cc32)c(C)c1C(=O)N1CCN(C)CC1` is ___
Result string: 95

Query string: Fill in: Population Normal (%) of CN(C)C(=O)N[C@H]1CC[C@H](CCN2CCN(c3cccc(Cl)c3Cl)CC2)CC1.Cl [CARIPRAZINE HYDROCHLORIDE] is ___
Result string: 92

Query string: Fill in: Population Normal (%) of `COc1cc2nccc(Oc3ccc(NC(=O)Nc4cc(C)on4)c(Cl)c3)c2cc1OC.O` is ___
Result string: 98

Query string: Fill in: Population Normal (%) of `C=CC(=O)Nc1cccc(C(=O)Nc2ccc(Nc3cc(-c4[nH]c(SC)nc4C)ccn3)cc2)c1` is ___
Result string: 94

Query string: Fill in: Population Normal (%) of Cl.N#Cc1ccc2[nH]cc(CCCCN3CCN(c4ccc5oc(C(N)=O)cc5c4)CC3)c2c1 [VILAZODONE HYDROCHLORIDE] is ___
Result string: 74

###

System: U2OS
experiment-notes: Multiplex assay against U2OS
Assay type: toxicity, cell-based
condition-parameters: human, 48 h, 10 µM, compound concentration 10 uM, replicate 2
I'd appreciate it if you could supply Total Cell Count values for the items below.

Query string: // fetch U2OS Total Cell Count for COc1cccc([C@@H](C)NCCCc2ccccc2Cl)c1.Cl [TECALCET HYDROCHLORIDE]
Result string: 130

Query string: // fetch U2OS Total Cell Count for `Cc1cc(C)cc(-c2cnc3cc(Cl)c(-c4cccc(O)c4)cc3c2OCCCN)c1`
Result string: 80

Query string: // fetch U2OS Total Cell Count for CN1CCCC(n2nc(Cc3ccc(Cl)cc3)c3ccccc3c2=O)CC1.Cl (stereo unspecified) [AZELASTINE HYDROCHLORIDE]
Result string: 119

Query string: // fetch U2OS Total Cell Count for CC[C@H](C)C(=O)O[C@H]1C[C@@H](C)C=C2C=C[C@H](C)[C@H](CC[C@@H]3C[C@@H](O)CC(=O)O3)[C@H]21 [LOVASTATIN]
Result string: 96

Query string: // fetch U2OS Total Cell Count for CN(C)CC#Cc1ccc(OCCCc2sc(N3CCc4cccc(C(=O)Nc5nc6ccccc6s5)c4C3)nc2C(=O)O)c(F)c1 [A-1155463]
Result string: 139

Query string: // fetch U2OS Total Cell Count for `CC(C)(O)CNc1ncc(-c2ccnc(Nc3ccnc(Cl)c3)n2)c(CC2CC2)n1`
Result string: 141

Query string: // fetch U2OS Total Cell Count for `C=CC(=O)Nc1cccc(C(=O)Nc2ccc(Nc3cc(-c4[nH]c(SC)nc4C)ccn3)cc2)c1`
Result string: 133

Query string: // fetch U2OS Total Cell Count for `Cn1cc(-c2[nH]c3cc(NC(=O)[C@H](N)C4CCCCC4)cc4c3c2C=NNC4=O)cn1`
Result string: 103

Query string: // fetch U2OS Total Cell Count for Cc1nc(-c2ccc(-c3ccc(C(=O)N4CCc5cc6c(cc54)C4(CCN(C)CC4)CO6)cc3)c(C)c2)no1 [SB-224289]
Result string: 85

Query string: // fetch U2OS Total Cell Count for `COc1cc2nccc(Oc3ccc(NC(=O)Nc4cc(C)on4)c(Cl)c3)c2cc1OC.O`
Result string: 62

Query string: // fetch U2OS Total Cell Count for `COc1cc(-n2cnc3cc(-c4ccc(Cl)cc4)sc3c2=O)ccc1OCCN1CCCC1`
Result string: 87

Query string: // fetch U2OS Total Cell Count for CN1CCN(c2ccc(OC(F)(F)F)c(Nc3ncc4c(n3)-c3c(c(C(N)=O)nn3CCO)CC4)c2)CC1 [ONVANSERTIB]
Result string: 59

Query string: // fetch U2OS Total Cell Count for CC(C)NCC(O)COc1ccc(CCOCC2CC2)cc1.Cl (stereo unspecified) [BETAXOLOL HYDROCHLORIDE]
Result string: 152

Query string: // fetch U2OS Total Cell Count for COc1ncc(-c2ccc3nccc(-c4ccnnc4)c3c2)cc1NS(=O)(=O)c1ccc(F)cc1F [OMIPALISIB]
Result string: 84

Query string: // fetch U2OS Total Cell Count for CN1CCN(CCOc2cc(OC3CCOCC3)c3c(Nc4c(Cl)ccc5c4OCO5)ncnc3c2)CC1 [SARACATINIB]
Result string: 89

Query string: // fetch U2OS Total Cell Count for Cl.N#Cc1ccc2[nH]cc(CCCCN3CCN(c4ccc5oc(C(N)=O)cc5c4)CC3)c2c1 [VILAZODONE HYDROCHLORIDE]
Result string: 120
